Species on record: Rattus norvegicus
Method Notes: Open TG-GATES - Regimen: Daily Repeat
Assay type: toxicity, organism-based, Sprague-Dawley
Parameters: regimen Daily Repeat, gender Male, age 6 weeks
Run Conditions: in vivo, po, 100 mg/kg, 72 h, tissue Plasma, route gavage, dose level Low, time 3 day
Quantity Name: TBIL

Given O=C(O)c1cccnc1 , state its recorded TBIL.
0 mg/dL

What does the record list as TBIL for CCN1CCCC1CNC(=O)c1cc(S(N)(=O)=O)ccc1OC (centres undefined) [SULPIRIDE] ?
0.058 mg/dL

Which TBIL is reported for this compound? CC(C)(S)[C@@H](N)C(=O)O
0.028 mg/dL

From here, focus on the item given below.
For the compound O=C(N[C@H](CO)[C@H](O)c1ccc([N+](=O)[O-])cc1)C(Cl)Cl , what TBIL is on record?
0.054 mg/dL

* * *

Parameter: PT. Scope: all listed entries.
Species: Rattus norvegicus
Method Notes: Open TG-GATES - Regimen: Daily Repeat
Type: toxicity, organism-based, Sprague-Dawley
Design: regimen Daily Repeat, gender Male, age 6 weeks
Run Conditions: in vivo, po, 1000 mg/kg, […], tissue Blood, route gavage, dose level High, time 7 day
Numbers only; they are read as s.

Here is how some compounds turned out for PT.
Name the recorded PT for O=C(O)c1cccnc1 .
16

// returns reported PT for input CCN1CCCC1CNC(=O)c1cc(S(N)(=O)=O)ccc1OC (centres undefined) [SULPIRIDE]
13.3

Reported PT, compound O=C(N[C@H](CO)[C@H](O)c1ccc([N+](=O)[O-])cc1)C(Cl)Cl : ____
14.8

Switching to the query record.
Entry under review: CC(C)(S)[C@@H](N)C(=O)O . Reported PT?
14.6

* * *

Organism: Rattus norvegicus
Method Notes: Open TG-GATES - Regimen: Daily Repeat
Type: toxicity, organism-based, Sprague-Dawley
Parameters: regimen Daily Repeat, gender Male, age 6 weeks
Run Conditions: in vivo, po, 1000 mg/kg, […], tissue Plasma, route gavage, dose level High, time 28 day
Form field: ALT (one value per entry).
Write the quantity with the unit trailing the number.

Dear colleague, I am looking for the recorded ALT of the following molecule: O=C(O)c1cccnc1 [NIACIN]
47 IU/L

Which ALT reading was recorded for the molecule O=C(N[C@H](CO)[C@H](O)c1ccc([N+](=O)[O-])cc1)C(Cl)Cl [CHLORAMPHENICOL] ?
43.6 IU/L

Any idea what ALT was measured for CCN1CCCC1CNC(=O)c1cc(S(N)(=O)=O)ccc1OC (centres undefined) [SULPIRIDE] ?
42.6 IU/L

Now look at this entry.
Param item = CC(C)(S)[C@@H](N)C(=O)O [PENICILLAMINE] ; retrieve measured ALT.
26.8 IU/L

* * *

Organism: Rattus norvegicus
Method Notes: Open TG-GATES - Regimen: Daily Repeat
Assay type: toxicity, organism-based, Sprague-Dawley
Parameters: regimen Daily Repeat, gender Male, age 6 weeks
Run Conditions: in vivo, po, 0 mg/kg, […], tissue Blood, route gavage, dose level Control, time 7 day
Listing of recorded APTT by entry.

Examples with answers:
Report APTT for O=C(N[C@H](CO)[C@H](O)c1ccc([N+](=O)[O-])cc1)C(Cl)Cl [CHLORAMPHENICOL] please.
17.6 s

Dear colleague, I am looking for the recorded APTT of the following compound: Nc1nc(N)c2nc(-c3ccccc3)c(N)nc2n1
18 s

// below: APTT requested for another compound
For CN1C(=O)OC(C)(C)C1=O [TRIMETHADIONE] , what is its reported APTT?
17.7 s

* * *

Organism: Rattus norvegicus
Method Notes: Open TG-GATES - Regimen: Daily Repeat
Format: toxicity, organism-based, Sprague-Dawley
Set-up: regimen Daily Repeat, gender Male, age 6 weeks
Run Conditions: in vivo, po, 1000 mg/kg, […], tissue Plasma, route gavage, dose level High, time 14 day
Quantity Name: gamma-GTP (IU/L)
Answer format: numeric, IU/L implied, no suffix.

Record excerpt, results attached:
Query (compound): O=C(O)c1cccnc1 [NIACIN] ; field requested: gamma-GTP
1.8

Given the entry O=C(N[C@H](CO)[C@H](O)c1ccc([N+](=O)[O-])cc1)C(Cl)Cl [CHLORAMPHENICOL] , report its measured gamma-GTP.
1

Can you share its gamma-GTP? I mean this compound: CC(C)(S)[C@@H](N)C(=O)O [PENICILLAMINE]
1

Okay, next one:
Param item = CCN1CCCC1CNC(=O)c1cc(S(N)(=O)=O)ccc1OC (centres undefined) [SULPIRIDE] ; retrieve measured gamma-GTP.
1

* * *

Some molecules, each annotated with its measured GLC.
Organism: Rattus norvegicus
Method Notes: Open TG-GATES - Regimen: Single
Type: toxicity, organism-based, Sprague-Dawley
Set-up: regimen Single, gender Male, age 6 weeks
Run Conditions: in vivo, po, 0 mg/kg, 24 h, tissue Plasma, route gavage, dose level Control

Please review the entries below; each comes with its answer.
I have this molecule here, Nc1nc(N)c2nc(-c3ccccc3)c(N)nc2n1 , and I need its recorded GLC.
188.6 mg/dL

What value of GLC has been recorded for this entry: CC(=O)Oc1cc(C(C)C)c(OCCN(C)C)cc1C [MOXISYLYTE]
189 mg/dL

Others:
Which GLC is listed for CN1C(=O)OC(C)(C)C1=O [TRIMETHADIONE] ?
165.4 mg/dL

Requested field: GLC. Item: CCc1oc2ccccc2c1C(=O)c1cc(I)c(O)c(I)c1 [BENZIODARONE]
200.6 mg/dL

What does the record list as GLC for CCSCC[C@H](N)C(=O)O [ETHIONINE] ?
211.6 mg/dL

# query: GLC of entry Oc1ncnc2[nH]ncc12 [ALLOPURINOL]
193.2 mg/dL

Item under review: CC(=N)S [THIOACETAMIDE] . Reported GLC?
183.2 mg/dL

* * *

Organism: Rattus norvegicus
Method Notes: Open TG-GATES - Regimen: Daily Repeat
Type: toxicity, organism-based, Sprague-Dawley
Set-up: regimen Daily Repeat, gender Male, age 6 weeks
Run Conditions: in vivo, po, 0 mg/kg, […], tissue Plasma, route gavage, dose level Control, time 14 day
Quantity Name: TC (mg/dL)
Output spec: scalar in mg/dL, unitless text.

Reported TC for CC(=N)S [THIOACETAMIDE] : what is it?
81.6

Continuing:
Look up TC: CC(C)(S)[C@@H](N)C(=O)O [PENICILLAMINE]
71.4

Query: TC; subject: CCC(C)(C)C(=O)O[C@H]1C[C@@H](C)C=C2C=C[C@H](C)[C@H](CC[C@@H]3C[C@@H](O)CC(=O)O3)[C@H]21 [SIMVASTATIN]
73.6

* * *

Species on record: Rattus norvegicus
Method Notes: Open TG-GATES - Regimen: Daily Repeat
Format: toxicity, organism-based, Sprague-Dawley
Set-up: regimen Daily Repeat, gender Male, age 6 weeks
Run Conditions: in vivo, po, 100 mg/kg, 72 h, tissue Plasma, route gavage, dose level Low, time 3 day
Quantity Name: TG (mg/dL)
# value in mg/dL; strip the unit string

Which TG value belongs to CC(C)(S)[C@@H](N)C(=O)O ?
114.8

Look at this compound and give its reported TG. O=C(O)c1cccnc1
110.8

# TG lookup, item CCN1CCCC1CNC(=O)c1cc(S(N)(=O)=O)ccc1OC (centres undefined) [SULPIRIDE]
106.6

State the recorded TG for this entry: O=C(N[C@H](CO)[C@H](O)c1ccc([N+](=O)[O-])cc1)C(Cl)Cl
97.6

* * *

Organism: Rattus norvegicus
Method Notes: Open TG-GATES - Regimen: Daily Repeat
Type: toxicity, organism-based, Sprague-Dawley
Set-up: regimen Daily Repeat, gender Male, age 6 weeks
Run Conditions: in vivo, po, 100 mg/kg, […], tissue Plasma, route gavage, dose level Low, time 28 day
Let's look at some molecules and their measured PL.
Quick reminder: number only, in mg/dL, skip the unit.

Consider the molecule shown here: O=C(N[C@H](CO)[C@H](O)c1ccc([N+](=O)[O-])cc1)C(Cl)Cl What is its recorded PL?
152.2

Which PL reading was recorded for the molecule CC(C)(S)[C@@H](N)C(=O)O ?
159.8

I have this molecule here, O=C(O)c1cccnc1 , and I need its recorded PL.
147.6

Moving on to the next molecule.
Bench note: what PL did CCN1CCCC1CNC(=O)c1cc(S(N)(=O)=O)ccc1OC (centres undefined) [SULPIRIDE] show?
136

* * *

Organism: Rattus norvegicus
Method Notes: Open TG-GATES - Regimen: Daily Repeat
Assay type: toxicity, organism-based, Sprague-Dawley
Parameters: regimen Daily Repeat, gender Male, age 6 weeks
Run Conditions: in vivo, po, 0 mg/kg, […], tissue Plasma, route gavage, dose level Control, time 7 day
The entries below are paired with their reported Ca.
Field format: number, assumed mg/dL, no unit text.

For the molecule CCSCC[C@H](N)C(=O)O , what Ca is on record?
10.7

Entry CC(=N)S [THIOACETAMIDE] : reported Ca = ?
10.3

Now turn to the next molecule.
Requested field: Ca. Item: CN1C(=O)OC(C)(C)C1=O
11
